Data provenance: patent US20260184687A1

# Subject of test: MALT1-GS-Ub (6-His-hMALT-1 residues 339-715 fused to ubiquitin) (Homo sapiens)
# Method description: biochemical
For each record, write down the corresponding pIC50.
Answers are plain numbers, as −log10 of the molar value.

Before answering, review these 2 worked examples.
{"Compound": "CN(C(=O)C1CCOCC1)[C@@H](c1ccc(NC2Cc3ccccc3C2(C)C)cc1)C(F)(F)F (single isomer, unassigned) [Example 19]", "pIC50": 6.77}
{"Compound": "CN(C(=O)N1CCS(=O)(=O)CC1)[C@@H](c1ccc(NC2Cc3ccccc3C2(C)C)cc1)C(F)(F)F (single isomer, unassigned) [Example 15]", "pIC50": 6.54}

Please find the next compound below.
The reported pIC50 of the compound CNS(=O)(=O)CCC(=O)N(C)[C@@H](c1ccc(NC2Cc3ccccc3C2(C)C)cc1)C(F)(F)F (single isomer, unassigned) [Example 61] was 6.74

* * *

# Subject of test: FL hMALT1 enzyme (Homo sapiens)
# Sequence (Q9UDY8 1-824): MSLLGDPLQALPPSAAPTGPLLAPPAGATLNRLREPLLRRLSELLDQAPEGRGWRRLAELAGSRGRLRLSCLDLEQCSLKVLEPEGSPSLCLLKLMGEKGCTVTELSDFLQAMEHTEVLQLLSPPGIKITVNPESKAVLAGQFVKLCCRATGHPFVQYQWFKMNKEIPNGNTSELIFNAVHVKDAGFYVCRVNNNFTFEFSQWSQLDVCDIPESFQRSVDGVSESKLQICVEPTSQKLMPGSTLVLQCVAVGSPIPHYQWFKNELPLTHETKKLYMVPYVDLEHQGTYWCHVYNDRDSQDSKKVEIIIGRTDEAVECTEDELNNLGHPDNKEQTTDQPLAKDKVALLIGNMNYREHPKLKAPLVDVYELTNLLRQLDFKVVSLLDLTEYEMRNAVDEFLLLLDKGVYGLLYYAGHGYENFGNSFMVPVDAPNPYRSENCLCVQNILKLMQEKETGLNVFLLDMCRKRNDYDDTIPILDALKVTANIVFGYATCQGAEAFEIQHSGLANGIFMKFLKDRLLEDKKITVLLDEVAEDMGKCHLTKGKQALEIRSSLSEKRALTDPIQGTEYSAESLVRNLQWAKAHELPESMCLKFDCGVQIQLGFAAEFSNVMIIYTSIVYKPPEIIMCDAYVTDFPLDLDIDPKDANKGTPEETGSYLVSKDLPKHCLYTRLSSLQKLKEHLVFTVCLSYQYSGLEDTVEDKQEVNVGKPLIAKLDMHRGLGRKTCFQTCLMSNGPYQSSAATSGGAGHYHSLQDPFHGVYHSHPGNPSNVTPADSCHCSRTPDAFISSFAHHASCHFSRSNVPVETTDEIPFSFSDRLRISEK
# Method description: biochemical
For each of the compounds below, state its log10(IC50).
Scale type: logarithmic (base 10). Underlying IC50 unit: nM.

{"Compound": "CN(C(=O)C1CCS(=O)(=O)CC1)[C@@H](c1ccc(NC2Cc3ccc(Cl)c(Cl)c3C2)cn1)C(F)(F)F (single isomer, unassigned) [Example 279]", "Subject of test": "FL hMALT1 enzyme (Homo sapiens)", "log10(IC50)": 1.18}
{"Compound": "CN(C(=O)[C@H]1C[C@@H](O)C1)[C@@H](c1ccc(NC2Cc3ccc(Cl)c(F)c3C2)cn1)C(F)(F)F (single isomer, unassigned) [Example 382]", "Subject of test": "FL hMALT1 enzyme (Homo sapiens)", "log10(IC50)": 1.98}
{"Compound": "CN(C(=O)CO)[C@@H](c1ccc(NC2Cc3ccc(Cl)c(F)c3C2)cn1)C(F)(F)F (single isomer, unassigned) [Example 367]", "Subject of test": "FL hMALT1 enzyme (Homo sapiens)", "log10(IC50)": 2.49}

// input: 3 compounds below; output: log10(IC50) for each
1. CN(C(=O)C1CNC(=O)O1)[C@@H](c1ccc(N[C@@H]2Cc3ccccc3C2(C)C)cn1)C(F)(F)F (single isomer, unassigned) [Example 109]
2. CC1(C)c2ccccc2CC1Nc1ccc([C@H](NC(=O)C2CCS(=O)(=O)CC2)C(F)(F)F)cc1 (single isomer, unassigned) [Example 82]
3. CN(C(=O)C1CCN(S(C)(=O)=O)CC1)[C@@H](c1ccc(NC2Cc3ccc(Cl)c(Cl)c3C2)cn1)C(F)(F)F (single isomer, unassigned) [Example 325]

Completion:
[2.88, 2.66, 0.95]

* * *

# Subject of test: MALT1-GS-Ub (6-His-hMALT-1 residues 339-715 fused to ubiquitin) (Homo sapiens)
# Method description: biochemical
Value kind: IC50 (nM)
Give bare numbers, in nM.

{"Molecule": "COCCC(=O)N(C)[C@@H](c1ccc(NC2Cc3ccccc3C2(C)C)cc1)C(F)(F)F (single isomer, unassigned) [Example 33]", "IC50 [nM]": 360}
{"Molecule": "CN(C(=O)C1CCS(=O)(=O)CC1)[C@@H](c1ccc(NC2Cc3ccc(Cl)cc3C2)cc1)C(F)(F)F (single isomer, unassigned) [Example 56]", "IC50 [nM]": 150}
{"Molecule": "CN(C(=O)CCC(=O)O)[C@@H](c1ccc(NC2Cc3ccccc3C2(C)C)cc1)C(F)(F)F (single isomer, unassigned) [Example 53]", "IC50 [nM]": 170}
{"Molecule": "C[C@H](c1ccc(NC2Cc3ccccc3C2(C)C)cc1)N(C)C(=O)C1CCS(=O)(=O)CC1 (single isomer, unassigned) [Example 63]", "IC50 [nM]": 390}
{"Molecule": "CN(C(=O)c1cnon1)[C@@H](c1ccc(NC2Cc3ccccc3C2(C)C)cc1)C(F)(F)F (single isomer, unassigned) [Example 51]", "IC50 [nM]": 930}
{"Molecule": "CN(C(=O)CCC(=O)O)[C@@H](c1ccc(NC2Cc3ccccc3C2(C)C)cc1)C(F)(F)F (single isomer, unassigned) [Example 52]", "IC50 [nM]": 260}

Okay, here is my list. What is IC50 for each of these?
1. CN([C@@H](c1ccc(NC2Cc3ccccc3C2(C)C)cc1)C(F)(F)F)S(=O)(=O)C1CC1 (single isomer, unassigned) [Example 80]
2. CN(C(=O)c1cc[nH]c(=O)c1)C(c1ccc(NC2Cc3ccccc3C2(C)C)cn1)C(F)(F)F (single isomer, unassigned) [Example 98]

Completion:
270
210

Batch of 4 molecules: report IC50 for each.
1. CC1(C)c2ccccc2CC1Nc1ccc([C@H](NC(=O)C2CCS(=O)(=O)CC2)C(F)(F)F)cc1 (single isomer, unassigned) [Example 82]
2. CN1CC(C(=O)N(C)C(c2ccc(NC3Cc4ccccc4C3(C)C)cn2)C(F)(F)F)C1 (single isomer, unassigned) [Example 92]
3. CN1CC(C(=O)N(C)[C@@H](c2ccc(NC3Cc4ccccc4C3(C)C)cc2)C(F)(F)F)C1 (single isomer, unassigned) [Example 76]
4. CC(=O)NCC(=O)N(C)[C@@H](c1ccc(NC2Cc3ccccc3C2(C)C)cc1)C(F)(F)F (single isomer, unassigned) [Example 40]

Completion:
[470, 500, 220, 230]

* * *

Answer each item with its documented IC50.
# Subject of test: MALT1-GS-Ub (6-His-hMALT-1 residues 339-715 fused to ubiquitin) (Homo sapiens, UniProt Q9UDY8)
# Method description: biochemical
Structures can show the parent of a compound that is named as a salt.
Answers are plain numbers, in nM.

Answered cases to consult:
{"Compound": "CNS(=O)(=O)CCCC(=O)N(C)[C@@H](c1ccc(NC2Cc3ccccc3C2(C)C)cc1)C(F)(F)F (single isomer, unassigned) [Example 65]", "IC50, nM": 190}
{"Compound": "CC(=O)N1CC(OC(=O)N(C)[C@@H](c2ccc(NC3Cc4ccccc4C3(C)C)cc2)C(F)(F)F)C1 (single isomer, unassigned) [Example 57]", "IC50, nM": 160}
{"Compound": "CN(C(=O)C1CNC1)C(c1ccc(NC2Cc3ccccc3C2(C)C)nc1)C(F)(F)F (single isomer, unassigned) [Example 88]", "IC50, nM": 650}

Sample CN(C(=O)OC1CNC1)[C@@H](c1ccc(NC2Cc3ccccc3C2(C)C)cc1)C(F)(F)F (stereo partly shown) [Example 60, Hydrochloride] ; IC50 observed: 210

* * *

# Subject of test: FL hMALT1 enzyme (Homo sapiens, UniProt Q9UDY8)
# Sequence (Q9UDY8 1-824): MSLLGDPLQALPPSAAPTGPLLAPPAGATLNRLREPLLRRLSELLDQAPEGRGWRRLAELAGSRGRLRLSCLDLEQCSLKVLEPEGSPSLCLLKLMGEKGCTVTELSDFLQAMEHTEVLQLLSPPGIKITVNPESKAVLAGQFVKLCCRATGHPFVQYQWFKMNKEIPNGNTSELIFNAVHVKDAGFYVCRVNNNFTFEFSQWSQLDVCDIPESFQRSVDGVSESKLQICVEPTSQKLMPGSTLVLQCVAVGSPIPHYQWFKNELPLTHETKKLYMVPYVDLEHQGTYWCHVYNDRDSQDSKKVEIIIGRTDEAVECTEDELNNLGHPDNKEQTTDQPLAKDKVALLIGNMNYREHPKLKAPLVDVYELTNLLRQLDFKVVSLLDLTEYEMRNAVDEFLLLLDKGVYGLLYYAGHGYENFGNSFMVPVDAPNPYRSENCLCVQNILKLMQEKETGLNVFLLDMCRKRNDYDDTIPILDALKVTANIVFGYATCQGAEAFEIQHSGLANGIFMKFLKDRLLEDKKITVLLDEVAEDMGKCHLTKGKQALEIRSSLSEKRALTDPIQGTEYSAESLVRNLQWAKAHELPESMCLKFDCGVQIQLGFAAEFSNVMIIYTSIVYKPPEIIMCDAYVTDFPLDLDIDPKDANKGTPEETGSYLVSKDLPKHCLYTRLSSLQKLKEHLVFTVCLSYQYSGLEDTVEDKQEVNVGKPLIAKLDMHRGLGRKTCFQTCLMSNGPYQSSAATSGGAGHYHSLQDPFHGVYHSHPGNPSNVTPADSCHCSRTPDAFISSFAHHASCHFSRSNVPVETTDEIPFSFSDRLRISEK
# Method description: biochemical
Value kind: IC50 (nM)
Numbers only, in nM.

{"Compound": "CC(=O)N[C@H]1CC[C@@H](C(=O)N(C)[C@@H](c2ccc(N[C@@H]3Cc4ccccc4C3(C)C)cn2)C(F)(F)F)C1 [Example 204]", "IC50 [nM]": 220}
{"Compound": "CNS(=O)(=O)CCCC(=O)N(C)[C@@H](c1ccc(NC2Cc3ccccc3C2(C)C)cc1)C(F)(F)F (single isomer, unassigned) [Example 64]", "IC50 [nM]": 12}

# next compound below
The compound identified as CN(C(=O)C1CCS(=O)(=O)CC1)[C@@H](c1ccc(NC2Cc3cccc(Cl)c3C2)cn1)C(F)(F)F (single isomer, unassigned) [Example 264] registered its IC50 at 1200
